Data provenance: patent US20190276542A1

Target: human PD1 expressed on a cell surface (human, UniProt Q15116 25-288)
Sequence (Q15116 25-288): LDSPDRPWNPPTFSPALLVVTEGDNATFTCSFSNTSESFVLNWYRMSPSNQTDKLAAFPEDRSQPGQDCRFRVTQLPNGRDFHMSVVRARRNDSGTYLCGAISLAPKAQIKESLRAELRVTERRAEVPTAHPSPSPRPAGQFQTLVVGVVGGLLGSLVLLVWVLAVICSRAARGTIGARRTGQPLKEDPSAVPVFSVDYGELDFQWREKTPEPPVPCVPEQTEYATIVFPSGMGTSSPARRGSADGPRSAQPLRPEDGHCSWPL
Assay: cell-based or functional assay
Recorded Endpoint: EC50 for CD4+ T cell proliferation (pM), mixed lymphocyte reaction

Binder | Result Number
anti-hPD1 antibody #4 (antibody, human IgG4, V domains shown, also called Anti-hPD1 #4; Anti-PD1 #4) VH: QVQLVQSGAEVKKPGASVKVSCKASGYTFTNYWMHWVRQAPGQGLEWMGEIDPFDSYTNYNQKFKGRVTMTRDTSTSTVYMELSSLTSEDTAVYYCARPGYTYGGMDFWGQGTLVTVSS VL: DIQMTQSPSSLSASVGDRVTITCKSSQSLLNSGNQKNYLAWYQQKPGKPPKLLIYGASTRDSGVPSRFSGSGSGTDFTLTISSLQPEDVATYYCQNDHYYPYTFGGGTKVEIK | 391
anti-hPD1 antibody #10 (antibody, human IgG4, V domains shown, also called Anti-hPD1 #10; Anti-PD1 #10) VH: QVQLVQSGAEVKKPGASVKVSCKASGYTFTSYWMHWVRQAPGQGLEWMGEIDPFDSYTNYNQKFKGRVTMTIDKSTNTVYMELSSLGSEDTAVYYCARPGYTYGGMDFWGQGTLVTVSS VL: DIVMTQSPDSLAVSLGERATINCRSSQSLFISGNQKNYLAWYQQKPGQPPKLLIYGASTRDSGVPDRFSGSGSGTDFTLTISSLQAEDVAVYYCQNNHYYPYTFGGGTKVEIK | 234
anti-hPD1 antibody #3 (antibody, human IgG4, V domains shown, also called Anti-hPD1 #3; Anti-PD1 #3) VH: QVQLVQSGAEVKKPGASVKVSCKASSYTFTNYWMHWVRQAPGQGLEWMGEIDPYDSYTNYNQKFKGRVTMTIDTSTSTVYMELSSLTSEDTAVYYCARPGFTYGGMDFWGQGTLVTVSS VL: DIQMTQSPSSLSASVGDRVTITCKSSQSLFNSGNQKNYLAWYQQKPGKVPKLLIYGASTRESGVPARFSGSGSGTDFTLTISSLQAEDVATYYCQNDHYYPYTFGGGTKVEIK | 365
